Assignment: determine reported IC50 for the given molecules.
TARGET UNDER TEST: human FLT4 (Homo sapiens)
Construct: a construct expressing the human FLT4 (789-1207) with an amino terminal GST tag; host or cells: Sf9 insect cells (baculovirus)
Sequence (P35916 789-1207): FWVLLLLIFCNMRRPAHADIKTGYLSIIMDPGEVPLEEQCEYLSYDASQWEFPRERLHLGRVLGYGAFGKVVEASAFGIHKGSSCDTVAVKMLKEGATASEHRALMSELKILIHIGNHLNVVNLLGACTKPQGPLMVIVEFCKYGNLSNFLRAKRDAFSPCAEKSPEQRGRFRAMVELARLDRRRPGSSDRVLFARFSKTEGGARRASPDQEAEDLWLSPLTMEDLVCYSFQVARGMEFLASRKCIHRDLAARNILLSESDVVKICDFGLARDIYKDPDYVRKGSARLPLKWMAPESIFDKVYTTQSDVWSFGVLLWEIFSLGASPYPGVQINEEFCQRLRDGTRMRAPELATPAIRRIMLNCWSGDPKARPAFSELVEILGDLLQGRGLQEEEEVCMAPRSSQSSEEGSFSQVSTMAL
PROTOCOL SUMMARY: FLT4 kinase assay (DELFIA enzyme inhibition)
Format: biochemical
CONDITIONS USED: read-out: FLT4 IC50
Counter-ions that a name gives are not always drawn.

Query: I'd like to know its IC50. The molecule in question is COc1ccc(-c2oc(Nc3ccccc3F)nc2C(N)=O)cc1
Reply: < 10 µM

Query: I'd like to know its IC50. The molecule in question is NC(=O)c1nc(-c2c(F)cccc2F)oc1Nc1ccc(OC2CCNCC2)cc1
Reply: < 10 µM

Query: I'd like to know its IC50. The molecule in question is NC(=O)c1nc(-c2c(F)cccc2F)oc1Nc1ccc(-c2nnn[nH]2)cc1
Reply: < 10 µM

Query: I'd like to know its IC50. The molecule in question is CN1CCN(C(=O)c2ccc(Nc3oc(-c4c(F)cccc4F)nc3C(N)=O)cc2)CC1CO (stereo not shown)
Reply: < 10 µM

Query: I'd like to know its IC50. The molecule in question is NC(=O)c1nc(-c2c(F)cccc2F)oc1Nc1ccc(OCCN2CCOCC2)cc1
Reply: < 10 µM

Query: I'd like to know its IC50. The molecule in question is NC(=O)c1nc(-c2c(F)cccc2F)oc1Nc1ccc(S(=O)(=O)N2CCCCC2)cc1
Reply: < 10 µM

Query: I'd like to know its IC50. The molecule in question is NC(=O)c1nc(-c2c(F)cccc2F)oc1-c1ccc(N)cc1
Reply: < 10 µM

Query: I'd like to know its IC50. The molecule in question is NC(=O)c1nc(-c2c(F)cccc2F)oc1-c1ccccn1
Reply: < 100 µM

Query: I'd like to know its IC50. The molecule in question is NC(=O)c1nc(-c2c(F)cccc2F)oc1-c1ccc(OCC(O)CN2CCOCC2)cc1 (stereo not shown)
Reply: < 10 µM

Query: I'd like to know its IC50. The molecule in question is NC(=O)c1nc(-c2c(Cl)cccc2Cl)oc1-c1ccc(OCCN2CCCCC2)cc1
Reply: < 10 µM

Query: I'd like to know its IC50. The molecule in question is COc1ccc(-c2nc(-c3ccccc3C)[nH]c2C(N)=O)cc1
Reply: < 100 µM

Query: I'd like to know its IC50. The molecule in question is COc1cccc(Nc2nc(C(N)=O)c(-c3ccc(N4CCNCC4)cc3)o2)c1
Reply: < 10 µM

Query: I'd like to know its IC50. The molecule in question is CC(=O)N1CCN(c2ccc(-c3oc(-c4c(F)cccc4F)nc3C(N)=O)cc2)CC1
Reply: < 10 µM

Query: I'd like to know its IC50. The molecule in question is COc1ccc(-c2oc(Nc3cccc(C)c3)nc2C(N)=O)cc1
Reply: < 10 µM

Query: I'd like to know its IC50. The molecule in question is COc1ccc(-c2nc(-c3ccc(C)cc3)[nH]c2C(N)=O)cc1
Reply: < 100 µM

Query: I'd like to know its IC50. The molecule in question is NC(=O)c1nc(-c2c(F)cccc2F)oc1-c1ccncc1
Reply: < 10 µM

Query: I'd like to know its IC50. The molecule in question is NCC1CN(Cc2cccc(-c3oc(-c4c(F)cccc4F)nc3C(N)=O)c2)CCO1 (stereo not shown) [Example X-4, formate salt]
Reply: < 100 µM

Query: I'd like to know its IC50. The molecule in question is NC(=O)c1nc(-c2c(F)cccc2F)oc1Nc1cccc(N2CCOCC2)c1
Reply: < 10 µM

Query: I'd like to know its IC50. The molecule in question is CN1CCN(c2ccc(-c3oc(-c4c(F)cccc4F)nc3C(N)=O)cn2)CC1
Reply: < 10 µM

Query: I'd like to know its IC50. The molecule in question is CN(C)c1ccc(-c2oc(-c3c(F)cccc3F)nc2C(N)=O)cc1
Reply: < 10 µM

Query: I'd like to know its IC50. The molecule in question is NC(=O)c1nc(-c2ccccc2F)oc1-c1ccc(N2CCNCC2)cc1
Reply: < 10 µM

Query: I'd like to know its IC50. The molecule in question is NC(=O)c1nc(-c2cccc3[nH]ncc23)oc1-c1ccc(N2CCNCC2)cc1
Reply: < 10 µM

Query: I'd like to know its IC50. The molecule in question is COc1ccccc1Nc1oc(-c2c(F)cccc2F)nc1C(N)=O
Reply: < 10 µM

Query: I'd like to know its IC50. The molecule in question is NC(=O)c1nc(-c2c(F)cccc2F)oc1-c1ccsc1
Reply: < 10 µM

Query: I'd like to know its IC50. The molecule in question is COc1ccc(-c2nc(-c3ccc(OC)cc3)c(C(N)=O)[nH]2)cc1
Reply: < 100 µM

Query: I'd like to know its IC50. The molecule in question is NC(=O)c1nc(-c2c(F)cccc2F)oc1-c1ccc(OCCN2CCC[C@H]2CO)cc1
Reply: < 10 µM

Query: I'd like to know its IC50. The molecule in question is CN1CCN(C(=O)Nc2ccc(Nc3oc(-c4c(F)cccc4F)nc3C(N)=O)cc2)CC1
Reply: < 10 µM

Query: I'd like to know its IC50. The molecule in question is NC(=O)c1nc(-c2ccccc2F)oc1Nc1ccc(N2CCOCC2)cc1
Reply: < 10 µM
